target: hLRRC33-proTGFβ1 complex on cells (human, UniProt Q86YC3 19-692; P01137 30-390); test: cell-based or functional assay
Sequence (Q86YC3 19-692 limits assumed, chain 1 of 2): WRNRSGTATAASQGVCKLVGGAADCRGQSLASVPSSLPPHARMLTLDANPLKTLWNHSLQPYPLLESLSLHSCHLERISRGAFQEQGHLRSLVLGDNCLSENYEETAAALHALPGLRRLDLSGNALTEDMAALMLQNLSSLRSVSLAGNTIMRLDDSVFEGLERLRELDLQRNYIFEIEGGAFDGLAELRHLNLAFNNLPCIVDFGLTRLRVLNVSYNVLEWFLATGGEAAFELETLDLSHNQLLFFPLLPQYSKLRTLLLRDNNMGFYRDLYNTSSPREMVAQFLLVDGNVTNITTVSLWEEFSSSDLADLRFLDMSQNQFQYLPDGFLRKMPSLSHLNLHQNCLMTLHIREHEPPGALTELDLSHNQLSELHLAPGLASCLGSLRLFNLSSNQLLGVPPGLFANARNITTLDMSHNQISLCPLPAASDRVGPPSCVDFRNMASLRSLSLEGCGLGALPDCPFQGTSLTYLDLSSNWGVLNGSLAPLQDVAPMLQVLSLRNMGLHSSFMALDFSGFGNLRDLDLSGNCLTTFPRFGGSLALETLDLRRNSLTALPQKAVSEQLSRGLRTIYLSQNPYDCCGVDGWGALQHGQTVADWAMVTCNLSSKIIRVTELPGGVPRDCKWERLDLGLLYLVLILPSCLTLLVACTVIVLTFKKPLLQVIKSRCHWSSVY
Sequence (P01137 30-390 limits assumed, chain 2 of 2): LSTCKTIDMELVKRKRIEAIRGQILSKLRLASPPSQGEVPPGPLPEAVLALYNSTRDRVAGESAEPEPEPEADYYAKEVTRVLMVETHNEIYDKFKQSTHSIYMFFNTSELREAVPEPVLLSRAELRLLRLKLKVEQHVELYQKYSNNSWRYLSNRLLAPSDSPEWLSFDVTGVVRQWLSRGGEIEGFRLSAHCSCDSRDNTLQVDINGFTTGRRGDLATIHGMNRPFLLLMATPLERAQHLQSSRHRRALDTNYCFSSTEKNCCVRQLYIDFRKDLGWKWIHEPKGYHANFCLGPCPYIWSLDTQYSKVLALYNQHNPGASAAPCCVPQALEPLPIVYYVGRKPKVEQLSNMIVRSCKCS
For each record, write down the corresponding IC50, reporter cell assay of TGFβ1 activation.
// note: answer is a bare numeric in nM

Prompt: Quick check: IC50, reporter cell assay of TGFβ1 activation of Ab20 (antibody, IgG4, V domains shown) VH: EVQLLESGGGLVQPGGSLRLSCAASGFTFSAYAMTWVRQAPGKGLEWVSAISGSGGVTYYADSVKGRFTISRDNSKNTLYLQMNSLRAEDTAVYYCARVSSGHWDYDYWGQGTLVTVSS VL: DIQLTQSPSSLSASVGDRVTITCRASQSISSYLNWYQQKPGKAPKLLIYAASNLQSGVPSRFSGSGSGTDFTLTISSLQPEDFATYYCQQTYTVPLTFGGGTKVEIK ?
Response: 1.35

Prompt: Further, for Ab12 (antibody, IgG4, V domains shown) VH: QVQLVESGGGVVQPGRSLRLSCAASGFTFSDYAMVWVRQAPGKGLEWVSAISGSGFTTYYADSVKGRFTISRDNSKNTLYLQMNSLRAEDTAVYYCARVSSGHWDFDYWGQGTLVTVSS VL: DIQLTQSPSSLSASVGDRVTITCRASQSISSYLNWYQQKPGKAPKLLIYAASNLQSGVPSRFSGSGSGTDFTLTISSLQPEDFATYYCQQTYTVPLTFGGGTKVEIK ?
Response: 2.43

Prompt: What do we get for Ab21 (antibody, V domains shown) VH: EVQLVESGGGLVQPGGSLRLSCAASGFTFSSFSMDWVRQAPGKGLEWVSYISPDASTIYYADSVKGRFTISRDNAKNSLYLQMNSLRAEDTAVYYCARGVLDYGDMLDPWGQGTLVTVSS VL: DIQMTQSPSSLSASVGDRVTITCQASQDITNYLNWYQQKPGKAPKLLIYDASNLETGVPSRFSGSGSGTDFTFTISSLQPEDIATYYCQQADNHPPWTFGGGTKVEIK ?
Response: 0.596

Prompt: Now this one: Ab19 (antibody, IgG4, V domains shown) VH: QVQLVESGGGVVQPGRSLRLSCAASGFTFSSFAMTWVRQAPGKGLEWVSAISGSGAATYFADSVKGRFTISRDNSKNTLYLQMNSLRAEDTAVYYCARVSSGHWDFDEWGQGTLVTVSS VL: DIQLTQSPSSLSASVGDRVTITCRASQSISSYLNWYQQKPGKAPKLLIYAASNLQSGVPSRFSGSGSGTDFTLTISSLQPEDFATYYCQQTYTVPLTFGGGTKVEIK
Response: 0.401

Prompt: # repeat for Ab4 (antibody, IgG4, V domains shown, also called parental lead antibody of Ab6) VH: EVQLVESGGGLVQPGGSLRLSCAASGFTFSSYSMNWVRQAPGKGLEWVSYISSSSSTIYYADSVKGRFTISRDNAKNSLYLQMNSLRAEDTAVYYCARGVLDYGDMLDPWGQGTLVTVSS VL: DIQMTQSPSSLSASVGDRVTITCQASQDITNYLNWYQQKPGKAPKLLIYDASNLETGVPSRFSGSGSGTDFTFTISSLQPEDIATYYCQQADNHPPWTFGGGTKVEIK
Response: 3.5
